# Tested on: IGROV1 ovarian
# Protocol Notes: NCI tumour cell line growth inhibition, 48 h
Observation Type: TGI

O=[N+]([O-])c1ccc(-c2noc(-c3ccccc3)c2C2=NCCN2)cc1    > 100 µM
CN1c2ccccc2NC(CC(=O)O)C2CC=CN21 (stereo not drawn)    > 100 µM

Moving on to another compound below.
[Q] For CCOC(=O)C(NC(=O)CC)(Nc1ccccc1OC)C(F)(F)F (stereo not drawn) , what is its reported TGI?
[A] > 100 µM

---

# Tested on: 786-0 renal
# Protocol Notes: NCI tumour cell line growth inhibition, 48 h
Observation Type: TGI

CCCNC(=S)N=Nc1c(O)[nH]c2ccccc12    > 100 µM
CCOC(=O)/C(SC#N)=C(/N)N1CCCC1    > 100 µM

Below: the item to evaluate.
[Q] Missing value: TGI, 786-0 renal, entry "NC1=NS(=O)(=O)Nc2nc(-c3ccc(Cl)cc3)[nH]c21" . Fill in?
[A] > 100 µM
